- TEST_SUMMARY: Compound stability in human liver microsomes
- Format: in vitro ADME
- STUDY_CONDITIONS: liver microsomes, pH 7.4; in vivo CLint extrapolated from human liver microsome incubation
VALUE_TYPE: CLint scaled at 5 μM (mL/min/kg)

Solved entries:
Cc1nc(-c2c(N)ncnc2N[C@@H](C)c2cc3cccc(Cl)c3c(=O)n2C2CC2)no1 [Ex. 11]    545
Cc1noc(-c2c(N)ncnc2N[C@@H](C)c2cc3cccc(-c4cnn(C)c4)c3c(=O)n2-c2ccccc2)n1 [Ex. 28]    64.1
Cc1noc(-c2c(N)ncnc2N[C@@H](C)c2cc3cccc(Cl)c3c(=O)n2-c2ccccc2)n1 [Ex. 8]    196
CC[C@H](Nc1ncnc(N)c1-c1noc(C)n1)c1cc2cccc(F)c2c(=O)n1-c1ccccc1 [Ex. 18]    226
Cc1noc(-c2c(N)ncnc2N[C@@H](C)c2cc3cccc(-c4cnn(C)c4)c3c(=O)n2C2CC2)n1 [Ex. 26]    51.8
C[C@H](Nc1ncnc(N)c1-c1nnn(C)n1)c1cc2cccc(Cl)c2c(=O)n1-c1ccccc1 [Ex. 15]    287

P: CC[C@H](Nc1ncnc(N)c1-c1nnn(C)n1)c1cc2cccc(Cl)c2c(=O)n1C1CC1 [Ex. 13]
Q: CCCCOC(=O)c1nc(-c2c(N)ncnc2N[C@@H](CC)c2cc3cccc(Cl)c3c(=O)n2C2CC2)nn1C [Ex. 14]
Kindly compare P with Q and tell me which has the lower CLint scaled at 5 μM figure. Lab log: write the label of the selected item as the result.
P
(P: 157 mL/min/kg, Q: 225 mL/min/kg)

I: Cc1noc(-c2c(N)ncnc2N[C@@H](C)c2cc3cccc(Cl)c3c(=O)n2-c2cccc(F)c2)n1 [Ex. 23]
II: Cc1nc(-c2c(N)ncnc2N[C@@H](C)c2cc3cccc(-c4cnn(C)c4)c3c(=O)n2C2CC2)no1 [Ex. 34]
III: CC[C@H](Nc1ncnc(N)c1-c1nc(C)no1)c1cc2cccc(C)c2c(=O)n1-c1ccccc1 [Ex. 2]
IV: CC[C@H](Nc1ncnc(N)c1-c1nnc(C)o1)c1cc2cccc(C)c2c(=O)n1C1CC1 [Ex. 6]
V: CC[C@H](Nc1ncnc(N)c1-c1nc(C)no1)c1cc2cccc(F)c2c(=O)n1C1CC1 [Ex. 1]
Which order do these items take when sorted by rising CLint scaled at 5 μM? List them. A ranking is expressed here by listing the labels in the requested order.
II, IV, V, I, III

* * *

- TEST_SUMMARY: Pharmacokinetic profiles in rats
- Type: in vivo, rat
- STUDY_CONDITIONS: oral vs iv (iv 1 mg/kg; p.o. generally 5 or 10 mg/kg)
- Protocol: The compounds disclosed herein are assessed in pharmacokinetic studies in mice, rats, dogs or monkeys. The compounds are administered as a water solution, 2% HPMC+1% TWEEN®80 in water solution, 5% DMSO+5% solutol in saline, 4% MC suspension or capsule. For the intravenous administration, the animals are generally given at 1 or 2 mg/kg dose. […] The plasma solutions are collected, stored at −20° C. or −70° C. until analyzed by LC/MS/MS as described above.
VALUE_TYPE: F (%)

As a guide, the following entries are already answered.
CC[C@H](Nc1ncnc(N)c1-c1noc(C)n1)c1cc2cccc(-c3cnn(C)c3)c2c(=O)n1C1CC1    139.0
CC[C@H](Nc1ncnc(N)c1-c1nc(C)no1)c1cc2cccc(-c3cnn(C)c3)c2c(=O)n1C1CC1    74.2
CC[C@H](Nc1ncnc(N)c1-c1nnc(C)o1)c1cc2cccc(Cl)c2c(=O)n1-c1ccccc1    106.3

P: CC[C@H](Nc1ncnc(N)c1-c1nc(C)no1)c1cc2cccc(F)c2c(=O)n1C1CC1
Q: CC[C@H](Nc1ncnc(N)c1-c1nnc(C)o1)c1cc2cccc(Cl)c2c(=O)n1C1CC1
Please let me know which one, P or Q , has a lower measured F value. Mark your selection by writing its label.
P
(P: 46.34%, Q: 81.33%)

* * *

- TEST_SUMMARY: Pharmacokinetic profiles in rats
- Format: in vivo, rat
- STUDY_CONDITIONS: rat, plasma, iv dosing 1 mg/kg
VALUE_TYPE: half-life (min)

Solved cases below.
C[C@H](Nc1ncnc(N)c1-c1ncn(C)n1)c1cc2cccc(Cl)c2c(=O)n1C1CC1 [Ex. 16]    36.6
C[C@H](Nc1ncnc(N)c1-c1nnn(C)n1)c1cc2cccc(Cl)c2c(=O)n1C1CC1 [Ex. 12]    42
Cc1nnc(-c2c(N)ncnc2N[C@@H](C)c2cc3cccc(Cl)c3c(=O)n2C2CC2)o1 [Ex. 4]    58.8
C[C@H](Nc1ncnc(N)c1-c1nnn(C)n1)c1cc2cccc(-c3cnn(C)c3)c2c(=O)n1C1CC1 [Ex. 33]    97.2
CC[C@H](Nc1ncnc(N)c1-c1nc(C)no1)c1cc2cccc(Cl)c2c(=O)n1-c1ccccc1 [Ex. 3]    44.4

a: CC[C@H](Nc1ncnc(N)c1-c1nnc(C)o1)c1cc2cccc(Cl)c2c(=O)n1-c1ccccc1 [Ex. 5]
b: C[C@H](Nc1ncnc(N)c1-c1nnn(C)n1)c1cc2cccc(-c3cnn(C)c3)c2c(=O)n1-c1ccccc1 [Ex. 29]
c: CC[C@H](Nc1ncnc(N)c1-c1nnc(C)o1)c1cc2cccc(C)c2c(=O)n1C1CC1 [Ex. 6]
Order by half-life, ascending. In your reply, arrange the labels in the requested order.
a, c, b
(a: 31.8 min, c: 51.6 min, b: 78 min)

* * *

- TEST_SUMMARY: Pharmacokinetic profiles in monkeys
- Assay type: in vivo
- STUDY_CONDITIONS: plasma; Monkey, iv dosing 1 mg/kg
VALUE_TYPE: AUC(0-t) (ng·h/mL)

A: Cc1nnc(-c2c(N)ncnc2N[C@@H](C)c2cc3cccc(Cl)c3c(=O)n2-c2ccccc2)o1 [Ex. 9]
B: Cc1noc(-c2c(N)ncnc2N[C@@H](C)c2cc3cccc(Cl)c3c(=O)n2-c2ccccc2)n1 [Ex. 8]
Could you please tell me which of these two has the higher AUC(0-t): A or B ? Selection: enter the item's label.
A
(A: 1120 ng·h/mL, B: 711 ng·h/mL)

* * *

- TEST_SUMMARY: Pharmacokinetic profiles in monkeys
- Type: in vivo
- STUDY_CONDITIONS: plasma; Monkey, iv dosing 1 mg/kg
VALUE_TYPE: half-life (min)

I: Cc1nnc(-c2c(N)ncnc2N[C@@H](C)c2cc3cccc(Cl)c3c(=O)n2-c2ccccc2)o1
II: Cc1noc(-c2c(N)ncnc2N[C@@H](C)c2cc3cccc(Cl)c3c(=O)n2-c2ccccc2)n1
Field: entry with larger half-life (options I / II ). Bench note: the answer is the label of the chosen record.
I
(I: 73.8 min, II: 39 min)

* * *

- TEST_SUMMARY: Compound stability in rat liver microsomes
- Format: in vitro ADME
- STUDY_CONDITIONS: pH 7.4; rat liver microsomes 0.5 mg protein/mL, compound 5 μM, NADPH 1.0 mM, 37° C.; read-out: Rat T1/2
VALUE_TYPE: half-life at 5 μM (min)

a: CC[C@H](Nc1ncnc(N)c1-c1nnc(C)o1)c1cc2cccc(C)c2c(=O)n1C1CC1 [Ex. 6]
b: C[C@H](Nc1ncnc(N)c1-c1nnn(C)n1)c1cc2cccc(-c3cnn(C)c3)c2c(=O)n1-c1ccccc1 [Ex. 29]
c: Cc1nnc(-c2c(N)ncnc2N[C@@H](C)c2cc3cccc(Cl)c3c(=O)n2-c2ccccc2)o1 [Ex. 9]
# rank_down: sort by half-life at 5 μM, max first Give the labels in the order requested.
b, c, a

* * *

- TEST_SUMMARY: Pharmacokinetic profiles in rats
- Format: in vivo, rat
- STUDY_CONDITIONS: oral vs iv (iv 1 mg/kg; p.o. generally 5 or 10 mg/kg)
VALUE_TYPE: F (%)

Below are worked cases with known answers.
Cc1nnc(-c2c(N)ncnc2N[C@@H](C)c2cc3cccc(-c4cnn(C)c4)c3c(=O)n2C2CC2)o1 [Ex. 25]    81.0
C[C@H](Nc1ncnc(N)c1-c1nnn(C)n1)c1cc2cccc(-c3cnn(C)c3)c2c(=O)n1-c1ccccc1 [Ex. 29]    80.6
C[C@H](Nc1ncnc(N)c1-c1ncn(C)n1)c1cc2cccc(Cl)c2c(=O)n1C1CC1 [Ex. 16]    11.44
CC[C@H](Nc1ncnc(N)c1-c1nnn(C)n1)c1cc2cccc(Cl)c2c(=O)n1C1CC1 [Ex. 13]    67.9
CC[C@H](Nc1ncnc(N)c1-c1ncn(C)n1)c1cc2cccc(Cl)c2c(=O)n1C1CC1 [Ex. 20]    64.61
CC[C@H](Nc1ncnc(N)c1-c1noc(C)n1)c1cc2cccc(F)c2c(=O)n1-c1ccccc1 [Ex. 18]    38.15
Cc1noc(-c2c(N)ncnc2N[C@@H](C)c2cc3cccc(Cl)c3c(=O)n2C2CC2)n1 [Ex. 24]    12.28
C[C@H](Nc1ncnc(N)c1-c1nnn(C)n1)c1cc2cccc(Cl)c2c(=O)n1C1CC1 [Ex. 12]    32.09
Cc1nnc(-c2c(N)ncnc2N[C@@H](C)c2cc3cccc(Cl)c3c(=O)n2C2CC2)o1 [Ex. 4]    78.78
CC[C@H](Nc1ncnc(N)c1-c1nc(C)no1)c1cc2cccc(C)c2c(=O)n1-c1ccccc1 [Ex. 2]    46.57

a: Cc1noc(-c2c(N)ncnc2N[C@@H](C)c2cc3cccc(Cl)c3c(=O)n2-c2ccccc2)n1 [Ex. 8]
b: CC[C@H](Nc1ncnc(N)c1-c1nc(C)no1)c1cc2cccc(Cl)c2c(=O)n1-c1ccccc1 [Ex. 3]
Would you let me know which has the greater F value, a or b ? // output: label of the selected item
a
